Molecular target: T1, mouse MerTK (mouse, UniProt Q60805 23-496)
T1 construct: also called MuMER
T1 sequence (looked up): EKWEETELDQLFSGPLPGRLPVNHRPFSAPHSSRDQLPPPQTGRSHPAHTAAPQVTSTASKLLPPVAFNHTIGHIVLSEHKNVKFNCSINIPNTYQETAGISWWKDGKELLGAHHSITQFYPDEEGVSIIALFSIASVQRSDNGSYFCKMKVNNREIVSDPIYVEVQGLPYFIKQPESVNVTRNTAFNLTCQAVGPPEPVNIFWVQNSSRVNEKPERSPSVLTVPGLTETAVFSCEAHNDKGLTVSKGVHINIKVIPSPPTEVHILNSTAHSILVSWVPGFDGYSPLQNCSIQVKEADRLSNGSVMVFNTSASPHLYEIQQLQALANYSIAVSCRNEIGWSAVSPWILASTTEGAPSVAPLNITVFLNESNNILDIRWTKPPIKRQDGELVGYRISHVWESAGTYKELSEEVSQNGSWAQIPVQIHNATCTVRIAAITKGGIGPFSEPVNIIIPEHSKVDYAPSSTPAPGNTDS
Assay: SPR BIAcore T200, Ab captured, 25C
RECORDED_METRIC: pKd
The scale used: pKd is minus the common logarithm of the concentration in molar units.

BINDER	RECORDED_METRIC	READOUT_NUMBER
Rbt22C4 (antibody, V domains shown, Recombinant rabbit monoclonal antibody, Expi293, protein A purified) VH: QSVEESGGRLVTPGTPLTLTCTVSGFSLSTYSMSWVRQAPGKGLEWLGIVSVAIDPVYATWARGRFTISRTSTTVNLKITSPTTEDTATYFCVRVAFSTNGIPHRLDLWGQGTLVTVSS VL: AQVLTQTASSVSAAVGGTVTISCQSSPSVYNHNWLSWYQQKPGQPPKLLIYEASKLASGVPSRFSGSGSGTQFTLTISDVQCDEAATYYCAGGFSSGSDSFAFGGGTEVVVT	pKd	8.66
Rbt11G11 (antibody, V domains shown, Recombinant rabbit monoclonal antibody, Expi293, protein A purified) VH: QELVESGGGLVQAGESLKLSCKASGIDFSSYGISWVRQAPGKGLEWIAYIYPGFGITNYAHSVKGRFTISSDNAQNTVFLQMPSLTASDTATYFCARDLDYTGGVVGYAYVTYYFTLWGPGTLVTVSS VL: DPVLTQTPSSVEAAVGGTVTIKCQASESISSRLAWYQQKPGQPPKLLIYSASTLASGVSSRFKGSGSGTEFTLTISDLECADAATYYCQTYYGGSTTGWYVFGGGTEVVVK	pKd	8.39
Rbt8F4 (antibody, V domains shown, Recombinant rabbit monoclonal antibody, Expi293, protein A purified) VH: QSVQESGGRLVTPGTPLTLTCTVSGFSLINYPMSWVRQAPGKGLEWIGVISSTGGTNYASWAKGRFTISKTSTTVDLKITSPTTEDTATYFCARVDFLVYLGGAYIIWGLDLWGQGTLVTVSS VL: AAVLTQTPSPVSAAVGGTVTINCQSSPNIYSNYLSWFQQKPGQPPKILIYGASTLASGVPSRFKGSGSGTQFTLTISDVQCDDAATYYCAGGYSDSSEAYAFGGGTEVVVK	pKd	8.64
Rbt18G7 (antibody, V domains shown, Recombinant rabbit monoclonal antibody, Expi293, protein A purified) VH: QSLEESGGRLVTPGTPLTLTCTVSGIDLSSYALGWVRQAPGKGLEYIGIISSTGTTYYATWAKGRFTISKTSSTTVDLKITGPTTEDTATYFCARGAYAGYVAFGPYYFHIWGPGTLVTISL VL: DIVMTQTPASVEAAVGGTVTIKCQASQSISNFLAWYQQKPGQPPKVLIYAASHLASGVPSRFKGSGSGTQFTLTISDLECADAATYYCQSYFYSSTSIYNAFGGGTEVVVR	pKd	8.77
Rbt9E3.FN (antibody, V domains shown, Recombinant rabbit monoclonal antibody, Expi293, protein A purified) VH: QSVEESGGRLVTPGTPLTLTCTVSGFSLSSNAMSWVRQAPGKGLEWIGIISSSGSTYSASWAKGRFTISKTSTTMDLKITSPTTEDTATYFCARVGFFVGYGAYDYGIIHRLDLWGQGTLVTVSS VL: AAVLTQTPSPVSAAVGGTVSISCQSSKSIYNNNWLSWYQQKPGQPPKLLIYDASDLASGVPSRFEGSGSGTEFTLTISDLECDDAATYYCAGGYSGDSDYAFGGGTEVVVK	pKd	9.22
Rbt10F7 (antibody, V domains shown, Recombinant rabbit monoclonal antibody, Expi293, protein A purified) VH: QSVEESGGRLVTPGTPLTLTCTVSGFSLSGYAMSWVRQAPGKGLEYIGVISSSGSSYYPSWAKGRFTISKTSTTVDLQITSPTTEDTATYFCARVQFYVGYAVYGYGIIDRLDLWGQGTLVTVSS VL: AAVLTQTPSPVSATMGGTVSISCQSSKSVYNNNWLSWYQQKPGQPPKLLIYRASTLESGVPSRFKGSGSGTQFTLTISDVHCDDAATYFCAGGYSSSSSANAFGGGTEVVVK	pKd	8.39
Rbt12H4 (antibody, V domains shown, Recombinant rabbit monoclonal antibody, Expi293, protein A purified) VH: QSVEESGGRLVTPGTPLTVTCTVSGFSLSVYGMGWVRQAPGKGLEYIGFINNVGNTYYASWAKGRFTISKTSTTVDLKITSPTTEDTATYFCAKGGGGDWGYFNIWGPGTLVTVSL VL: DVVMTQTPASVEAAVGGTVTIKCQASQSIGNALAWYQQKPGQRPKLLIYAASNLASGVPSRFAGSGSGTQFTLTISDLECADAATYYCQTYYAINRYGGAFGGGTEVVVK	pKd	8.07
Rbt14C9 (antibody, V domains shown, Recombinant rabbit monoclonal antibody, Expi293, protein A purified) VH: QSVEESGGRLVTPGTPLTLTCTVSGIDLSANTMNWVRQAPGKGLEWIGIFTATGSTYYATWVNGRFTISKTSTTVDLKITSPTTEDTATYFCARSGSGSSSGAFNIWGPGTLVTVSL VL: DPVLTQTPASVSEPVGGTVTIKCQASQSISSSLAWYQQKPGQPPKLLIYAASILASEISSRFKGSRSGTEFTLTISDLECADAATYYCQCTSYGSLFLGPFGGGTEVVVK	pKd	9.22
Rbt13D8 (antibody, V domains shown, Recombinant rabbit monoclonal antibody, Expi293, protein A purified) VH: QSLEESGGRLVTPGTPLTLTCTVSGFSFSSYSMGWVRQAPGKGPEYIGVISASGTTYYASWVNGRFTISKTSTTMDLKMTSPTAADTATYFCARAAFTAYNRGSCVIHRLDLWGQGTLVTVSS VL: AQVLTQTASSVSAAVGGTVTINCQASQSVYDSKWLAWYQQKPGQPPKLLIYSASTLASGVPSRFKGSGSGTQFTLTISDLECDDAATYYCAGAYTDNIVFGGGTEVVVK	pKd	8.92

// next entry
QUERY: Requested read-out: pKd. Entry: Rbt10C3 (antibody, V domains shown, Recombinant rabbit monoclonal antibody, Expi293, protein A purified) VH: QSLEESGGRLVTPGTPLTLTCTASGFSLSGYTMGWVRQAPGKGLEYIGVISSGGTTYYTNWAKGRFTISKTSTTVDLKITSPTTEDTATYFCARVAFTAYGGGGFPTLHRLDLWGQGTLVTVSS VL: AQVLIQTASSVSAAVGGTVTISCQSSESVYNNDYLAWYQQKPGQPPKLLIYSASTLASGVPSRFKGSGSGTQFTLTISDLECDDAATYYCAGGYLGNNVFGGGTEVVVK
RESULT: 9.15

Data provenance: patent US20220135701A1
